Taken from patent US20260165976A1.

# METHOD_DESCRIPTION: Surface pressure isotherms and Brewster angle microscopy of films on a Langmuir trough
# Assay type: physicochemical
# TEST_SETTINGS: PBS subphase, 35±1° C.
MEASURED_METRIC: phase behaviour of the film (surface pressure isotherm, BAM)

CCCCCCCCCCCCCCCCCC(=O)OC[C@H](COP(=O)(O)OCCN)OC(=O)CCCCCCCCCCCCCCCCC
suitable properties
CCCCCCCCCCCCCCCC(=O)OC[C@H](COP(=O)(O)OCCN)OC(=O)CCCCCCCCCCCCCCC
suitable properties
CCCCCCCCCCCCCCCCCC(=O)OC[C@H](COP(=O)(O)OC[C@H](N)C(=O)[O-])OC(=O)CCCCCCCCCCCCCCCCC.[Na+]
suitable properties

* * *

# METHOD_DESCRIPTION: Differential scanning calorimetry (DSC) of active components, phospholipids and liposomal formulations
# Assay type: physicochemical
# TEST_SETTINGS: heating 10° C./min, triplicate, in °C (unit assumed)
Mark MET for Peak Tm1 ± SD under 50, NOT MET if at or over.

Lab note: Peak Tm1 ± SD threshold 50. Does this compound come in strictly under it? `CCCCCCCC/C=C\CCCCCCCC(=O)OCCCCCCCCCCCCCCCCCCCC(=O)O` MET

Lab log: compare recorded Peak Tm1 ± SD with 50; is it strictly lower for `CCCCCCCCCCCCCCCCCCCC(=O)OC[C@H](COP(=O)([O-])OCC[N+](C)(C)C)OC(=O)CCCCCCCCCCCCCCCCCCC` ? NOT MET

For this compound, is Peak Tm1 ± SD lower than 50? `CCCCCCCCCCCCCCCCCCO` NOT MET

Determine whether this compound shows Peak Tm1 ± SD lower than 50 (ties excluded): `CCCCCCCC/C=C\CCCCCCCC(=O)OCCCCCCCCCCCCCCCCCC(=O)O` NOT MET

Identify whether the compound `CCCCCCCCCCCCCC(=O)OC[C@H](COP(=O)([O-])OCC[N+](C)(C)C)OC(=O)CCCCCCCCCCCCC` records Peak Tm1 ± SD below 50. MET

Is the reported Peak Tm1 ± SD for `CCCCCCCCCCCCCCCCCC(=O)OC[C@H](COP(=O)([O-])OCC[N+](C)(C)C)OC(=O)CCCCCCCCCCCCCCCCC` strictly below 50? NOT MET

Check if Peak Tm1 ± SD falls below 50 for `CCCCCCCC/C=C\CCCCCCCCOC(=O)CCCCCCCCCCCCCCCCC(=O)O` . NOT MET

Decide: Peak Tm1 ± SD of CCCCCCCC/C=C\CCCCCCCC(=O)OCCCCCCCCCCCCCCCCCCCCCC [BO, behenyl oleate] strictly below 50? MET

* * *

# METHOD_DESCRIPTION: Differential scanning calorimetry (DSC) of active components, phospholipids and liposomal formulations
# Type: physicochemical
# TEST_SETTINGS: heating 10° C./min, triplicate
MEASURED_METRIC: Onset Tm1 ± SD
Response field accepts a number only; no unit should be typed.

Would you kindly share the measured Onset Tm1 ± SD for CCCCCCCCCCCCCCCCCCO [1-Octadecanol, octadecanol] ? 56.49

Which Onset Tm1 ± SD value belongs to CCCCCCCC/C=C\CCCCCCCC(=O)OCCCCCCCCCCCCCCCCCC(=O)O [18:0/18:1-OAHFA, 18-(oleoyloxy)octadecanoic acid] ? 54.92

For the compound CCCCCCCCCCCCCCCCCC(=O)OC[C@H](COP(=O)([O-])OCC[N+](C)(C)C)OC(=O)CCCCCCCCCCCCCCCCC [DSPC] , what Onset Tm1 ± SD is on record? 50.13

Record request: Onset Tm1 ± SD value, item CCCCCCCC/C=C\CCCCCCCC(=O)OCCCCCCCCCCCCCCCCCCCC(=O)O [20:0/18:1-OAHFA, 20-(oleoyloxy)eicosanoic acid] 41.65

Dear colleague, I am looking for the recorded Onset Tm1 ± SD of the following compound: CCCCCCCCCCCCCCCCCCCC(=O)OC[C@H](COP(=O)([O-])OCC[N+](C)(C)C)OC(=O)CCCCCCCCCCCCCCCCCCC [DAPC] 63.04

Can you look up the measured Onset Tm1 ± SD of CCCCCCCCCCCCCC(=O)OC[C@H](COP(=O)([O-])OCC[N+](C)(C)C)OC(=O)CCCCCCCCCCCCC [DMPC] for me? 17.37

Which measured Onset Tm1 ± SD value corresponds to CCCCCCCC/C=C\CCCCCCCCOC(=O)CCCCCCCCCCCCCCCCC(=O)O [R-18:0/18:1-OAHFA, 18-(oleyloxy)-18-oxo-octadecanoic acid] ? 55.00

Please report the recorded Onset Tm1 ± SD for CCCCCCCC/C=C\CCCCCCCC(=O)OCCCCCCCCCCCCCCCCCCCCCC [BO, behenyl oleate] . 34.48
